Reported Cytotoxicity at 10^−5 M is given for each of the following compounds.
test system: human hepatoma cell line Hep-G2; test: Cytotoxicity towards tumour cells in vitro (Cell Titer 96 formazane colorimetric assay); assay type: cell-based; details: 10^−5 M, 48 h, percentage inhibition of the formation of formazane relative to the control
Reply numerically in %, unit not repeated.

{"compound": "Nc1ccc(C(=O)N[C@H](Cc2ccc3ccccc3c2)C(=O)Nc2ccc(C(=O)NO)cc2)cc1 [Example 2l]", "target_entity": "human hepatoma cell line Hep-G2", "observable": "Cytotoxicity at 10^−5 M", "experimental_result": 61.9}
{"compound": "O=C(NO)c1ccc(NC(=O)[C@H](Cc2ccc(O)cc2)NC(=O)c2ccccc2)cc1 [Example 2k]", "target_entity": "human hepatoma cell line Hep-G2", "observable": "Cytotoxicity at 10^−5 M", "experimental_result": 54.4}
{"compound": "O=C(NO)c1ccc(NC(=O)[C@@H](Cc2ccc3ccccc3c2)NC(=O)c2ccc3ccccc3c2)cc1 [Example 2v]", "target_entity": "human hepatoma cell line Hep-G2", "observable": "Cytotoxicity at 10^−5 M", "experimental_result": 69.4}
{"compound": "Nc1ccc(C(=O)N[C@@H](Cc2ccc3ccccc3c2)C(=O)Nc2ccc(C(=O)NO)cc2)cc1 [Example 2m]", "target_entity": "human hepatoma cell line Hep-G2", "observable": "Cytotoxicity at 10^−5 M", "experimental_result": 72.4}
{"compound": "O=C(NO)c1ccc(NC(=O)[C@H](Cc2ccc3ccccc3c2)NC(=O)c2cncc(Br)c2)cc1 [Example 2q]", "target_entity": "human hepatoma cell line Hep-G2", "observable": "Cytotoxicity at 10^−5 M", "experimental_result": 53.9}

Query (compound): CC(=O)N[C@@H](Cc1ccc(O)cc1)C(=O)Nc1ccc(C(=O)NO)cc1 [Example 2i] ; field requested: Cytotoxicity at 10^−5 M
12.2

Try O=C(NO)c1ccc(NC(=O)[C@H](Cc2ccc(C(F)(F)F)cc2)NC(=O)c2ccc3ccccc3c2)cc1 [Example 2w] next.
65.7

Try CC(=O)N[C@H](C(=O)Nc1ccc(C(=O)NO)cc1)C1Cc2ccccc2C1 [Example 2c] next.
78.3

Taken from patent US7635788B2.
